measurementDescription: Biliary excretion in bile duct drained rats after oral RPM extract
details: single p.o. RPM extract 18 g/kg, rat bile
Field: cumulative excretion into bile. Provide a value for each of the molecules that follow.
Numbers only, in nmol.

molecule	unitAnnotation	result
COc1cc(O[C@@H]2O[C@H](CO)[C@@H](O)[C@H](O)[C@H]2O)c2c(O)c(C(C)=O)c(C)cc2c1 [TG, torachrysone-8-O-glucoside]	nmol	8.96

For every item in the list below, what is its measured cumulative excretion into bile?
1. OC[C@H]1O[C@@H](Oc2c(O)cc(O)cc2/C=C/c2ccc(O)cc2)[C@H](O)[C@@H](O)[C@@H]1O
2. Cc1cc(O)c2c(c1)C(=O)c1cc(O)cc(O)c1C2=O
3. O=C1c2cccc(O)c2C(=O)c2c(O)cc(CO)cc21
4. COc1cc(O[C@@H]2O[C@H](CO)[C@@H](O)[C@H](O)[C@H]2O)c2c(c1)C(=O)c1cc(C)cc(O)c1C2=O [PG, physcion-8-O-β-D-glucoside]
5. O=C(O)c1cc(O)c2c(c1)C(=O)c1cccc(O)c1C2=O

[410, 70.7, 61.1, 18.2, 45.0]

----------
measurementDescription: Tissue distribution of RPM constituents after oral RPM extract
details: both, Sprague-Dawley, rat, brain, po, 18 g/kg, AUC0-t in brain, rat tissue: brain; 18 g/kg RPM extract p.o.; tissues collected at 5, 15, 60 min
Field: AUC(0-t). Provide a value for each of the compounds that follow.
Give bare numbers, in µM·h.

Worked cases, answers included:
compound	assayEndpoint	result
COc1cc(O[C@@H]2O[C@H](CO)[C@@H](O)[C@H](O)[C@H]2O)c2c(O)c(C(C)=O)c(C)cc2c1 [TG, torachrysone-8-O-glucoside]	AUC(0-t)	0.0185
COc1cc(O[C@@H]2O[C@H](CO)[C@@H](O)[C@H](O)[C@H]2O)c2c(c1)C(=O)c1cc(C)cc(O)c1C2=O [PG, physcion-8-O-β-D-glucoside]	AUC(0-t)	0.125

Note: attention shifts to another entry.
Using the record for "OC[C@H]1O[C@@H](Oc2c(O)cc(O)cc2/C=C/c2ccc(O)cc2)[C@H](O)[C@@H](O)[C@@H]1O" , report its AUC(0-t).
6.42

----------
measurementDescription: Excretion into urine and feces and mass balance after oral RPM extract
details: Sprague-Dawley, rat, feces, po, Recovery in feces (%), mass balance; 18 g/kg RPM extract p.o.; feces collected 0–72 h
Field: dose excreted. Provide a value for each of the compounds that follow.
Give the number first and the unit second.

Worked cases, answers included:
compound	dose excreted
COc1cc(O[C@@H]2O[C@H](CO)[C@@H](O)[C@H](O)[C@H]2O)c2c(c1)C(=O)c1cc(C)cc(O)c1C2=O [PG, physcion-8-O-β-D-glucoside]	11.6%
Cc1cc(O)c2c(c1)C(=O)c1cc(O)cc(O)c1C2=O [Emodin, emodin]	23.6%
OC[C@H]1O[C@@H](Oc2c(O)cc(O)cc2/C=C/c2ccc(O)cc2)[C@H](O)[C@@H](O)[C@@H]1O [TSG]	24.6%
COc1cc(O[C@@H]2O[C@H](CO)[C@@H](O)[C@H](O)[C@H]2O)c2c(O)c(C(C)=O)c(C)cc2c1 [TG, torachrysone-8-O-glucoside]	27.9%

Note: attention shifts to another entry.
Using the record for O=C1c2cccc(O)c2C(=O)c2c(O)cc(CO)cc21 [Aloe-emodin, aloe-emodin] , report its dose excreted.
21.7%
